Exercise: for every item that follows, state its recorded cell viability.
Test system: P12-Ichikawa
PROTOCOL: cell viability relative to DMSO control; higher = less cytotoxic
EXPERIMENTAL SETUP: RPMI 5 mM glucose + 10% FBS; 48 h; 0.19 µM
Report field: quantity (unit follows the number).

Some solved entries appear below for comparison.
CC1=CC=C2\N=C/3N(CC[C@@]3(O)C(=O)C2=C1)C4=CC=CC=C4	89.2%
O=C(O)c1ccc(-c2c[nH]c3ncc(-c4ccccc4)cc23)cc1C1CCCC1	133%
CC(Cc1ccc(O)c(O)c1)(NN)C(=O)O (stereo not given)	111%
O=C(O)CCNc1cc(N2CCc3ccccc3CC2)nc(-c2ccccn2)n1	123%
O=[S+]([O-])(O)c1ccc2cc(/N=N/c3cc([S+](=O)([O-])O)c4cccnc4c3O)ccc2c1	112%

Required: cell viability, one value per molecule below.
1. CCCC(CCC)C(=O)[O-]
2. Cc1cccc(N(C)C(=S)Oc2ccc3ccccc3c2)c1
3. CCc1c(O)cc(O)c(C(=O)c2ccc(OCCN3CCOCC3)c(OC)c2)c1CC(=O)N(CCOC)CCOC
4. CN(C)CC[C@H](CSc1ccccc1)Nc1ccc([S+](=O)([O-])NC(=O)c2ccc(N3CCN(Cc4ccccc4-c4ccc(Cl)cc4)CC3)cc2)cc1[N+](=O)[O-]
5. COc1ccc2c(OCc3nnc4ccc(-c5ccccc5)nn34)ccnc2c1

1: 119%; 2: 116%; 3: 103%; 4: 115%; 5: 106%
